Tested on: Escherichia coli TOP10
PROTOCOL: shrunken log2 fold change of peptide-encoding DNA abundance (4.5 h post-induction vs induction); higher = less antimicrobial activity (less host growth inhibition)
PROTOCOL CONDITIONS: time post-induction: 4.5 h; library: site-saturation at positions 5, 18, 19, 20
RECORDED ENDPOINT: shrunken log2 fold change
One number for each entry.

RRIRNRPPRLPRPRPRPGCCPRP    -0.0641
RRIRARPPRLPRPRPRPECGPRP    1.23
RRIRWRPPRLPRPRPRPWSHPRP    -0.00467
RRIRHRPPRLPRPRPRPGENPRP    -0.00146
RRIRTRPPRLPRPRPRPNCQPRP    -0.369
RRIRFRPPRLPRPRPRPTWSPRP    0.188
RRIRLRPPRLPRPRPRPDKNPRP    -0.0881
RRIRERPPRLPRPRPRPLHNPRP    -0.388
RRIRGRPPRLPRPRPRPWYKPRP    -0.015
RRIRARPPRLPRPRPRPHHPPRP    -0.242

Please supply shrunken log2 fold change for each of the following items, keeping them in order.
1. RRIRCRPPRLPRPRPRPGRHPRP
2. RRIRCRPPRLPRPRPRPCPRPRP
3. RRIRYRPPRLPRPRPRPKWWPRP
4. RRIRNRPPRLPRPRPRPLHQPRP

Out:
1. 0.105
2. 0.00856
3. -0.0129
4. -0.112

In: Bench note: what shrunken log2 fold change did RRIRRRPPRLPRPRPRPTEYPRP show?
Out: 0.0398

----------
Exercise: for every item that follows, state its recorded shrunken log2 fold change.
Tested on: Escherichia coli TOP10;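 also: peptides expressed intracellularly from a pBAD plasmid library in pooled LB shake-flask culture, induced with 0.3% L-arabinose, DNA abundance read by NGS, three biological replicates, DESeq2 with apeglm shrinkage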
PROTOCOL: shrunken log2 fold change of peptide-encoding DNA abundance (4.5 h post-induction vs induction); higher = less antimicrobial activity (less host growth inhibition)
PROTOCOL CONDITIONS: time post-induction: 4.5 h; library: site-saturation at positions 5, 18, 19, 20
Numbers only.

Previously resolved entries follow.
RRIRERPPRLPRPRPRPMQYPRP    -0.271
RRIRDRPPRLPRPRPRPITCPRP    -0.403
RRIRGRPPRLPRPRPRPRRQPRP    0.85
RRIRIRPPRLPRPRPRPYPVPRP    -0.18
RRIRKRPPRLPRPRPRPSYCPRP    -0.251
RRIRERPPRLPRPRPRPLMCPRP    -0.267

Go through the list and state shrunken log2 fold change for each entry.
1. RRIRFRPPRLPRPRPRPGCAPRP
2. RRIRVRPPRLPRPRPRPQNSPRP
3. RRIRTRPPRLPRPRPRPSNKPRP
4. RRIRMRPPRLPRPRPRPIYYPRP
5. RRIRHRPPRLPRPRPRPRGLPRP
6. RRIRIRPPRLPRPRPRPKKWPRP
7. RRIRARPPRLPRPRPRPLTQPRP
8. RRIRLRPPRLPRPRPRPQDCPRP

Out:
1: 1.03; 2: -0.802; 3: -0.916; 4: -0.51; 5: 0.369; 6: -0.00764; 7: 0.209; 8: 0.0274

Look at each sequence and report its shrunken log2 fold change.
1. RRIRYRPPRLPRPRPRPQNNPRP
2. RRIRERPPRLPRPRPRPNLSPRP
3. RRIRDRPPRLPRPRPRPRCVPRP
4. RRIRHRPPRLPRPRPRPFYAPRP
5. RRIRCRPPRLPRPRPRPCLYPRP
6. RRIRQRPPRLPRPRPRPPKFPRP
7. RRIRARPPRLPRPRPRPEAAPRP
8. RRIRWRPPRLPRPRPRPGIVPRP

Out:
1: -0.86; 2: -0.15; 3: 0.117; 4: -0.724; 5: -0.117; 6: 0.117; 7: 1.78; 8: 0.585

Could you report shrunken log2 fold change for every entry in the following list?
1. RRIRPRPPRLPRPRPRPATQPRP
2. RRIRLRPPRLPRPRPRPWFQPRP
3. RRIRNRPPRLPRPRPRPSVSPRP
4. RRIRTRPPRLPRPRPRPQRKPRP
5. RRIRKRPPRLPRPRPRPIGGPRP

Out:
0.133
-0.0555
-0.44
0.138
-0.494
